Target: hOX1R (Homo sapiens, UniProt O43613)
Assay: hOX1R FLIPR Ca2+ flux assay
Settings: CHO cells expressing the receptor; agonist 70 pM Ala-6,12 human orexin-A
property-label: IC50

{"compound": "O=C(c1ccccc1-n1nccn1)N1CC[C@H]2CCN(c3nccc4cccnc34)[C@H]2C1", "val": "≥ 10 µM"}
{"compound": "CC(C)(O)c1csc(N2CC[C@H]3CCN(C(=O)c4ccccc4-n4nccn4)C[C@@H]32)n1", "val": "10 µM"}
{"compound": "N#Cc1ccnc(N2CC[C@@H]3CCN(C(=O)c4ccccc4-n4cccn4)C[C@@H]32)c1", "val": "10 µM"}
{"compound": "COc1ccc(C(=O)N2CC[C@H]3CCN(c4cc(C#N)ccn4)[C@H]3C2)c(C2CC2)n1", "val": "10 µM"}
{"compound": "N#Cc1ccnc(N2CC[C@H]3CCN(C(=O)c4nccnc4-c4ccccn4)C[C@H]32)c1 (stereo in doubt)", "val": "≥ 10 µM"}
{"compound": "N#Cc1ccnc(N2CC[C@@H]3CCN(C(=O)c4cccnc4OCC(F)F)C[C@@H]32)c1 [Example D1]", "val": "10 µM"}
{"compound": "O=C(c1ccccc1-n1nccn1)N1CC[C@H]2CCN(c3ccnc4ccccc34)[C@H]2C1", "val": "10 µM"}
{"compound": "Cc1cc(C)nc(N2CC[C@@H]3CCN(C(=O)c4ccccc4-n4nccn4)C[C@@H]32)n1", "val": "10 µM"}

* * *

Measured log10(IC50) of individual entries
Target: human orexin-2 receptor (Homo sapiens (Human), UniProt O43614)
Sequence (O43614 whole entry): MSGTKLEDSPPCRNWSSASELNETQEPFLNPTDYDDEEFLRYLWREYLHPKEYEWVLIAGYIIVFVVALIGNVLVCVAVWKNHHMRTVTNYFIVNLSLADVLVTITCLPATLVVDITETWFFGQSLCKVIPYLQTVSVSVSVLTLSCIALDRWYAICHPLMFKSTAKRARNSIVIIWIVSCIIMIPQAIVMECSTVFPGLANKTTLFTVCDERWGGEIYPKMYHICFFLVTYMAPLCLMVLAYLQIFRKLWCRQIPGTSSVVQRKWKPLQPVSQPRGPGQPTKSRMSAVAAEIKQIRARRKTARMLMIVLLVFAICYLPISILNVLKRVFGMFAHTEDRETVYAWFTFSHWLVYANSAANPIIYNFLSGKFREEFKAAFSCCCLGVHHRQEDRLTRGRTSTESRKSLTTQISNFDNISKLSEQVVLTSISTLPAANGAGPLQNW
Assay: hOX2R FLIPR Ca2+ flux assay
Conditions: CHO cells expressing the receptor; agonist 70 pM Ala-6,12 human orexin-A
property-label: log10(IC50) (log10 of the value in nM)

{"compound": "Cc1ccc(C)n1-c1ccc(N2CC[C@@H]3CCN(C(=O)c4ccccc4-n4nccn4)C[C@@H]32)nn1", "log10(IC50)": 4.00}
{"compound": "N#Cc1ccnc(N2CC[C@@H]3CCN(C(=O)c4ccccc4OC(F)F)C[C@@H]32)c1", "log10(IC50)": 3.18}
{"compound": "CC(C)(O)c1ccnc(N2CC[C@@H]3CCN(C(=O)c4ccccc4-n4nccn4)C[C@@H]32)c1", "log10(IC50)": 2.10}
{"compound": "COc1ccc(C(=O)N2CC[C@H]3CCN(c4cc(C#N)ccn4)[C@H]3C2)c(C2CC2)n1", "log10(IC50)": 2.99}
{"compound": "CCOc1ccccc1C(=O)N1CC[C@H]2CCN(c3cc(C#N)ccn3)[C@H]2C1 [Example E1]", "log10(IC50)": 2.04}
{"compound": "CCOc1ccnc(N2CC[C@@H]3CCN(C(=O)c4ccccc4-n4nccn4)C[C@@H]32)c1", "log10(IC50)": 2.88}
{"compound": "N#Cc1ccnc(N2CC[C@@H]3CCN(C(=O)c4cccnc4OCC(F)(F)F)C[C@@H]32)c1", "log10(IC50)": 2.09}
{"compound": "Cc1ccnc(N2CC[C@@H]3CCN(C(=O)c4ccccc4-n4nccn4)C[C@@H]32)c1", "log10(IC50)": 2.96}
{"compound": "N#Cc1ccnc(N2CC[C@H]3CCN(C(=O)c4nccnc4-c4ccccn4)C[C@H]32)c1 (stereo in doubt)", "log10(IC50)": 2.52}
{"compound": "N#Cc1cccc(N2CC[C@@H]3CCN(C(=O)c4ccccc4-n4nccn4)C[C@@H]32)c1", "log10(IC50)": 3.24}
